tgt: CFTR (Homo sapiens, UniProt P13569, DEL508-508)
Construct: endogenous in cells; host or cells: primary human bronchial epithelial cells from CF subjects (F508del/MF-HBE), differentiated at air-liquid interface
Sequence (P13569 with tags, fused parts or gaps DEL508-508): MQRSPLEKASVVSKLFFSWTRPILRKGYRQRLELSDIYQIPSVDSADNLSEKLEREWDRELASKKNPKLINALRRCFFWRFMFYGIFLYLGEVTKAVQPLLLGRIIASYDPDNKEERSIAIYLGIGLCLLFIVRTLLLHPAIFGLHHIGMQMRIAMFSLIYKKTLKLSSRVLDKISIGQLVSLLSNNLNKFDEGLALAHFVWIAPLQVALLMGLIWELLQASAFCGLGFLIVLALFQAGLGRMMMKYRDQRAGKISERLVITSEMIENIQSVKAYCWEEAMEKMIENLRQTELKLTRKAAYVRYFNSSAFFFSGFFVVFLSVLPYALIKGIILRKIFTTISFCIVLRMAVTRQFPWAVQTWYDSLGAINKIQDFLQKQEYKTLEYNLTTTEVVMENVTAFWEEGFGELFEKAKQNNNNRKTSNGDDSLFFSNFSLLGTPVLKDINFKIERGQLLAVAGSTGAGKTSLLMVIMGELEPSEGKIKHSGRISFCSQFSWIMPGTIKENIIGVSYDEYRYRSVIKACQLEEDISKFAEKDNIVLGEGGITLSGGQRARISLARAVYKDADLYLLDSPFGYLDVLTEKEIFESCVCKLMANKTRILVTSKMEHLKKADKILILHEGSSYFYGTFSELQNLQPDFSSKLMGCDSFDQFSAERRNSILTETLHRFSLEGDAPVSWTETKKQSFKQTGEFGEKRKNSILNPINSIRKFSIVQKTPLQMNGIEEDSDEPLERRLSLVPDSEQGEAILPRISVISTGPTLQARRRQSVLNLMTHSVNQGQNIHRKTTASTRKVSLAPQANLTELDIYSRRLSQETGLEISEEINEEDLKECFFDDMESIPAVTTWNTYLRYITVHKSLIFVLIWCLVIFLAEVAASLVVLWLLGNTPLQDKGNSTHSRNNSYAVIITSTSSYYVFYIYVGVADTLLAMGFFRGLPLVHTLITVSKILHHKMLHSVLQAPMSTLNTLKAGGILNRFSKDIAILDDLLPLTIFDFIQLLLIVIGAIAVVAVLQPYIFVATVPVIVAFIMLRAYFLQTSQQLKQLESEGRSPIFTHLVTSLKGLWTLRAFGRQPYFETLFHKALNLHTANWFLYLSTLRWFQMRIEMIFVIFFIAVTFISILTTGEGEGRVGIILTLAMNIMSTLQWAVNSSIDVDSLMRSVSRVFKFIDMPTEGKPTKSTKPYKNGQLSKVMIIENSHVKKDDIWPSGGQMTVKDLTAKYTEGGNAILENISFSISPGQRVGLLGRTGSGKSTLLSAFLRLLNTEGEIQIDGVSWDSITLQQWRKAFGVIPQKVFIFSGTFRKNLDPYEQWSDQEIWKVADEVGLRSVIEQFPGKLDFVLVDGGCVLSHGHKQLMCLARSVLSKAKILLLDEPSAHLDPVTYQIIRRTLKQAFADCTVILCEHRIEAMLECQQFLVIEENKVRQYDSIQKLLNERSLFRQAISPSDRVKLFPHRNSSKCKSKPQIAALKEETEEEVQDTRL
methodSummary: HBE2 assay: Ussing chamber assay of CFTR-mediated short-circuit currents
Assay type: cell-based
conditionsUsed: F508del/MF-HBE cells; corrector at a range of concentrations with 44 nM potentiator, 18-24 hours, 20% human serum
pEC50: −log10 of the molar value.
attributeMeasured: pEC50

Examples with answers:
Q) I have this compound here, Cc1cccc(C)c1-c1cc2nc(n1)NS(=O)(=O)c1cccc(c1)C(=O)N(Cc1cncc(N3CC[C@H]3C)n1)[C@H](CCC(C)(C)C)CO2 [Compound 1726] , and I need its recorded pEC50.
A) > 6.00

Q) Thanks! And Cc1cccc(C)c1-c1cc2nc(n1)NS(=O)(=O)c1cccc(c1)C(=O)N(Cc1cncc(N(C)C3CCC3)n1)[C@H](C1CCCCC1)CO2 [Compound 1733] ?
A) > 6.00

In the following, a different compound is considered.
Q) I have this compound here, Cc1cccc(C)c1-c1cc2nc(n1)NS(=O)(=O)c1cccc(c1)C(=O)N(Cc1cncc(N(C)CC(C)C)n1)[C@H](CC1CCC1)CO2 [Compound 1712] , and I need its recorded pEC50.
A) > 6.00
